Where these numbers come from: ChEMBL document CHEMBL3044673

- System: Aphis craccivora
- RUN_DESCRIPTION: Insecticidal activity against Aphis craccivora (cowpea aphid) infested tender soybean shoots exposed to 100 mg/kg test compound solution assessed as insect mortality measured 24 hr post compound treatment
- Assay type: functional
MEASUREMENT_LABEL: mortality at 100 mg/kg (%)
Numbers only, in %.

Some entries whose results are on file:
COMPOUND	mortality at 100 mg/kg / %
CCOC(Nc1c(SC)c(C#N)nn1-c1c(Cl)cc(C(F)(F)F)cc1Cl)C(Cl)(Cl)Cl (configuration not stated)	100
CCCOC(Nc1c(SCC)c(C#N)nn1-c1c(Cl)cc(C(F)(F)F)cc1Cl)C(Cl)(Cl)Cl (configuration not stated)	90
CCSc1c(C#N)nn(-c2c(Cl)cc(C(F)(F)F)cc2Cl)c1NC(OC)C(Cl)(Cl)Cl (configuration not stated)	90
CCCOC(Nc1c([S+](C)[O-])c(C#N)nn1-c1c(Cl)cc(C(F)(F)F)cc1Cl)C(Cl)(Cl)Cl (configuration not stated)	100
CCOC(Nc1c([S+]([O-])CC)c(C#N)nn1-c1c(Cl)cc(C(F)(F)F)cc1Cl)C(Cl)(Cl)Cl (configuration not stated)	100
CCOC(Nc1c(SCC)c(C#N)nn1-c1c(Cl)cc(C(F)(F)F)cc1Cl)C(Cl)(Cl)Cl (configuration not stated)	86
CCSc1c(C#N)nn(-c2c(Cl)cc(C(F)(F)F)cc2Cl)c1NC(OCCF)C(Cl)(Cl)Cl (configuration not stated)	100
CC[S+]([O-])c1c(C#N)nn(-c2c(Cl)cc(C(F)(F)F)cc2Cl)c1NC(OCCF)C(Cl)(Cl)Cl (configuration not stated)	100
CC[S+]([O-])c1c(C#N)nn(-c2c(Cl)cc(C(F)(F)F)cc2Cl)c1NC(OCCCl)C(Cl)(Cl)Cl (configuration not stated)	100
CCCOC(Nc1c(SC)c(C#N)nn1-c1c(Cl)cc(C(F)(F)F)cc1Cl)C(Cl)(Cl)Cl (configuration not stated)	100

List reported mortality at 100 mg/kg for each of these compounds:
1. CC[S+]([O-])c1c(C#N)nn(-c2c(Cl)cc(C(F)(F)F)cc2Cl)c1NC(OC)C(Cl)(Cl)Cl (configuration not stated)
2. CCSc1c(C#N)nn(-c2c(Cl)cc(C(F)(F)F)cc2Cl)c1NC(OCCCl)C(Cl)(Cl)Cl (configuration not stated)
3. CCOC(Nc1c([S+](C)[O-])c(C#N)nn1-c1c(Cl)cc(C(F)(F)F)cc1Cl)C(Cl)(Cl)Cl (configuration not stated)
4. C[S+]([O-])c1c(C#N)nn(-c2c(Cl)cc(C(F)(F)F)cc2Cl)c1NC(OCCCl)C(Cl)(Cl)Cl (stereo in doubt; 7e-2)
5. CCCOC(Nc1c([S+]([O-])CC)c(C#N)nn1-c1c(Cl)cc(C(F)(F)F)cc1Cl)C(Cl)(Cl)Cl (configuration not stated)
6. COC(Nc1c([S+](C)[O-])c(C#N)nn1-c1c(Cl)cc(C(F)(F)F)cc1Cl)C(Cl)(Cl)Cl (configuration not stated)
7. CSc1c(C#N)nn(-c2c(Cl)cc(C(F)(F)F)cc2Cl)c1NC(OCCF)C(Cl)(Cl)Cl (configuration not stated)

Ans.
[100, 100, 100, 100, 100, 100, 100]
